protocol_description: Veliparib plasma pharmacokinetics, cycle 1
Type: in vivo, human
condition_context: human, plasma, oral, 10 mg
observed_property: half-life

Request: What value of measured half-life is listed for `C[C@]1(c2nc3c(C(N)=O)cccc3[nH]2)CCCN1` ?
Response: 4.2 h

* * *

protocol_description: Veliparib plasma pharmacokinetics, cycle 1
Format: in vivo, human
condition_context: human, plasma, oral, 10 mg, Cmax, Day -2; veliparib dose 10 mg (N=11)
observed_property: Cmax (ng/mL)
State just the number; it will be interpreted in ng/mL.

Request: If you can, please state the reported Cmax value of `C[C@]1(c2nc3c(C(N)=O)cccc3[nH]2)CCCN1` .
Response: 70.1

Taken from paper PMC5734661.
